- Test system: 677734-321-R-J1-PDC complex spheroid viability
- Assay explanation: Anticancer human tumor 677734-321-R-J1-PDC patient-derived soft tissue sarcoma cell line growth inhibition [POLQ]
- Measurement conditions: curve of first compound; second compound 1 µM
Measured IC50, listed per entry.

COc1cccc(OCCCN)c1-c1cc(Nc2cnc(C#N)cn2)n[nH]1 + COC1C(OC(N)=O)C(O)C(Oc2ccc3c(O)c(NC(=O)c4ccc(O)c(CC=C(C)C)c4)c(=O)oc3c2C)OC1(C)C: 0.00814 µM

// returns reported IC50 for input O=C(c1cc(Cc2n[nH]c(=O)c3ccccc23)ccc1F)N1CCN(C(=O)C2CC2)CC1 + COC1C(OC(N)=O)C(O)C(Oc2ccc3c(O)c(NC(=O)c4ccc(O)c(CC=C(C)C)c4)c(=O)oc3c2C)OC1(C)C > 10 µM

Input C#Cc1c(F)ccc2cc(O)cc(-c3ncc4c(N5CC6CCC(C5)N6)nc(OCC56CCCN5CC(F)C6)nc4c3F)c12 (stereo not drawn) + Cc1cccc(N(C)C(=O)C2C(O)CCN2c2nc(C)cc(C(F)(F)F)c2C#N)c1 > 10 µM

----------
- System: 677734-321-R-J1-PDC complex spheroid viability
- Assay explanation: Anticancer human tumor 677734-321-R-J1-PDC cell line growth inhibition [POLQ];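 also: spheroids exposed to compounds for one week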;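 as to viability, T/C: 100% = vehicle DMSO treated spheroids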
- Measurement conditions: second compound 3.16 µM; first compound 1 µM; stronger effect = lower value
Attribute measured: viability, T/C (%)
// note: answer is a bare numeric in %

O=c1[nH]cc(F)c(=O)[nH]1 + Nc1ccc(C#CCN(C(=O)Cc2ncc(C(F)(F)F)cc2C(F)(F)F)c2ccc(F)cc2)nn1: 89

Recorded viability, T/C of O=C(Nc1ccc(O)c(NS(=O)(=O)c2ccc(F)cc2)c1)c1ccc(-c2ccccc2)cc1 + Cc1cccc(N(C)C(=O)C2C(O)CCN2c2nc(C)cc(C(F)(F)F)c2C#N)c1 , please. 75.7

Now the same for COc1ccc([C@@H](O)c2cc(-c3ncnc4cc(N5CCOCC5)ccc34)c(F)cc2Cl)nn1 + COC1C(OC(N)=O)C(O)C(Oc2ccc3c(O)c(NC(=O)c4ccc(O)c(CC=C(C)C)c4)c(=O)oc3c2C)OC1(C)C 93.1

Consider next the molecule CCc1cc2c(N3CCc4c(cc(Cn5ccnc5)cc4-c4cn(C)nc4C(F)(F)F)C3=O)ccnc2c(OC)n1 + COC1C(OC(N)=O)C(O)C(Oc2ccc3c(O)c(NC(=O)c4ccc(O)c(CC=C(C)C)c4)c(=O)oc3c2C)OC1(C)C in the same way. 97.5

What do you have for COc1cc2cc(C(=O)CCC(=O)O)sc2cc1OC + Cc1cccc(N(C)C(=O)C2C(O)CCN2c2nc(C)cc(C(F)(F)F)c2C#N)c1 ? 102

----------
- Tested on: 677734-321-R-J1-PDC complex spheroid viability
- Assay explanation: Anticancer human tumor 677734-321-R-J1-PDC cell line growth inhibition [POLQ];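 also: spheroids exposed to compounds for one week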;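 as to viability, T/C: 100% = vehicle DMSO treated spheroids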
- Measurement conditions: second compound 0.316 µM; first compound 0.01 µM; stronger effect = lower value
Attribute measured: viability, T/C (%)
Field: numeric (%). Do not append units.

See these solved cases before continuing.
CC[C@@]1(O)C(=O)OCc2c1cc1n(c2=O)Cc2cc3c(CN(C)C)c(O)ccc3nc2-1 + COC1C(OC(N)=O)C(O)C(Oc2ccc3c(O)c(NC(=O)c4ccc(O)c(CC=C(C)C)c4)c(=O)oc3c2C)OC1(C)C: 103
CC[C@@]1(O)C(=O)OCc2c1cc1n(c2=O)Cc2cc3c(CN(C)C)c(O)ccc3nc2-1 + Nc1ccc(C#CCN(C(=O)Cc2ncc(C(F)(F)F)cc2C(F)(F)F)c2ccc(F)cc2)nn1: 98.2
Cn1ncnc1[C@H]1c2n[nH]c(=O)c3cc(F)cc(c23)N[C@@H]1c1ccc(F)cc1 + Nc1ccc(C#CCN(C(=O)Cc2ncc(C(F)(F)F)cc2C(F)(F)F)c2ccc(F)cc2)nn1: 97.4
COc1cccc(OCCCN)c1-c1cc(Nc2cnc(C#N)cn2)n[nH]1 + COC1C(OC(N)=O)C(O)C(Oc2ccc3c(O)c(NC(=O)c4ccc(O)c(CC=C(C)C)c4)c(=O)oc3c2C)OC1(C)C: 29
CCc1c2c(nc3ccc(O)cc13)-c1cc3c(c(=O)n1C2)COC(=O)[C@]3(O)CC + Nc1ccc(C#CCN(C(=O)Cc2ncc(C(F)(F)F)cc2C(F)(F)F)c2ccc(F)cc2)nn1: 10.8
CCc1c2c(nc3ccc(O)cc13)-c1cc3c(c(=O)n1C2)COC(=O)[C@]3(O)CC + Cc1cccc(N(C)C(=O)C2C(O)CCN2c2nc(C)cc(C(F)(F)F)c2C#N)c1: 18.8
C=CCn1c(=O)c2cnc(Nc3ccc(N4CCN(C)CC4)cc3)nc2n1-c1cccc(C(C)(C)O)n1 + COC1C(OC(N)=O)C(O)C(Oc2ccc3c(O)c(NC(=O)c4ccc(O)c(CC=C(C)C)c4)c(=O)oc3c2C)OC1(C)C: 105
C=CCn1c(=O)c2cnc(Nc3ccc(N4CCN(C)CC4)cc3)nc2n1-c1cccc(C(C)(C)O)n1 + Cc1cccc(N(C)C(=O)C2C(O)CCN2c2nc(C)cc(C(F)(F)F)c2C#N)c1: 95.3
CCc1c2c(nc3ccc(O)cc13)-c1cc3c(c(=O)n1C2)COC(=O)[C@]3(O)CC + COC1C(OC(N)=O)C(O)C(Oc2ccc3c(O)c(NC(=O)c4ccc(O)c(CC=C(C)C)c4)c(=O)oc3c2C)OC1(C)C: 12

Shifting focus to the compound that follows.
Fill in: viability, T/C of Cn1ncnc1[C@H]1c2n[nH]c(=O)c3cc(F)cc(c23)N[C@@H]1c1ccc(F)cc1 + Cc1cccc(N(C)C(=O)C2C(O)CCN2c2nc(C)cc(C(F)(F)F)c2C#N)c1 is ___ 102

----------
- Test system: 677734-321-R-J1-PDC complex spheroid viability
- Assay explanation: Anticancer human tumor 677734-321-R-J1-PDC cell line growth inhibition [POLQ];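 also: spheroids exposed to compounds for one week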
- Measurement conditions: curve of first compound; second compound 1 µM
Attribute measured: pIC50
# reply with the number alone; pIC50 is -log10 of concentration in mol/L

COc1cccc(OCCCN)c1-c1cc(Nc2cnc(C#N)cn2)n[nH]1 + Nc1ccc(C#CCN(C(=O)Cc2ncc(C(F)(F)F)cc2C(F)(F)F)c2ccc(F)cc2)nn1: 8.21

Could you now look at the following molecule, please?
Param item = O=C(Nc1ccc(O)c(NS(=O)(=O)c2ccc(F)cc2)c1)c1ccc(-c2ccccc2)cc1 + Cc1cccc(N(C)C(=O)C2C(O)CCN2c2nc(C)cc(C(F)(F)F)c2C#N)c1 ; retrieve measured pIC50. 5.47

----------
- System: 677734-321-R-J1-PDC complex spheroid viability
- Assay explanation: Anticancer human tumor 677734-321-R-J1-PDC cell line growth inhibition [POLQ]; active means viability on the fitted dose curve at most 10% of control; inactive means the rest;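 also: spheroids exposed to compounds for one week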
- Measurement conditions: second compound 3.16 µM; first compound 10 µM
Hi there, use one of these labels in your reply, thanks! 1 for active, 0 for inactive

Solved cases (2 shown):
COc1cccc2c1C(=O)c1c(O)c3c(c(O)c1C2=O)CC(O)(C(=O)CO)CC3OC1CC(N)C(O)C(C)O1 (stereo not drawn) + COC1C(OC(N)=O)C(O)C(Oc2ccc3c(O)c(NC(=O)c4ccc(O)c(CC=C(C)C)c4)c(=O)oc3c2C)OC1(C)C: 1
CCCS(=O)(=O)Nc1ccc(F)c(C(=O)c2c[nH]c3ncc(-c4ccc(Cl)cc4)cc23)c1F + Cc1cccc(N(C)C(=O)C2C(O)CCN2c2nc(C)cc(C(F)(F)F)c2C#N)c1: 1

API: the following record is the query input.
Record request — test call for CCc1cc2c(N3CCc4c(cc(Cn5ccnc5)cc4-c4cn(C)nc4C(F)(F)F)C3=O)cc(C)nc2c(OC)n1 + Nc1ccc(C#CCN(C(=O)Cc2ncc(C(F)(F)F)cc2C(F)(F)F)c2ccc(F)cc2)nn1 0

----------
- Tested on: 677734-321-R-J1-PDC complex spheroid viability
- Assay explanation: Anticancer human tumor 677734-321-R-J1-PDC cell line growth inhibition [POLQ];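 also: spheroids exposed to compounds for one week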;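 as to viability, T/C: 100% = vehicle DMSO treated spheroids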
- Measurement conditions: second compound 0.1 µM; first compound 1 µM; stronger effect = lower value
This listing pairs molecules with measured viability, T/C.
Write the value in % as a bare number.

CCCS(=O)(=O)Nc1ccc(F)c(C(=O)c2c[nH]c3ncc(-c4ccc(Cl)cc4)cc23)c1F + Nc1ccc(C#CCN(C(=O)Cc2ncc(C(F)(F)F)cc2C(F)(F)F)c2ccc(F)cc2)nn1: 98.9
COc1cccc2c1C(=O)c1c(O)c3c(c(O)c1C2=O)CC(O)(C(=O)CO)CC3OC1CC(N)C(O)C(C)O1 (stereo not given) + Cc1cccc(N(C)C(=O)C2C(O)CCN2c2nc(C)cc(C(F)(F)F)c2C#N)c1: 0.78
CC1COCCN1c1cc(-c2ccnn2C)c2ccnc(-c3ccn[nH]3)c2n1 (stereo not given) + Cc1cccc(N(C)C(=O)C2C(O)CCN2c2nc(C)cc(C(F)(F)F)c2C#N)c1: 17.1
O=C(Nc1ccc(O)c(NS(=O)(=O)c2ccc(F)cc2)c1)c1ccc(-c2ccccc2)cc1 + Nc1ccc(C#CCN(C(=O)Cc2ncc(C(F)(F)F)cc2C(F)(F)F)c2ccc(F)cc2)nn1: 102

Now turn to the next molecule.
Give its viability, T/C value. Item: C#Cc1c(F)ccc2cc(O)cc(-c3ncc4c(N5CC6CCC(C5)N6)nc(OCC56CCCN5CC(F)C6)nc4c3F)c12 (stereo not given) + Cc1cccc(N(C)C(=O)C2C(O)CCN2c2nc(C)cc(C(F)(F)F)c2C#N)c1 100

Value source: PubChem BioAssay AID1963842
